Every entry's value here was drawn from patent US9051275B2.

# Protocol Description: Solubility of P027 in different solvents at room temperature (visual, successive solvent additions)
# Format: physicochemical
# Cond: organic solvent or mixture, thermodynamic from solid; 1,1,1-Trichloroethane, room temperature
Value Type: solubility

Input: Sample Cc1cc(OCCN2CCOCC2)nn1-c1ccc2ccccc2c1.Cl — what was its solubility?
Output: < 1200 µg/mL

====

# Protocol Description: Solubility of P027 in different solvents at room temperature (visual, successive solvent additions)
# Type: physicochemical
# Cond: organic solvent or mixture, thermodynamic from solid; N,N-Dimethylacetamide, room temperature
# Protocol: In order to plan the crystallization screening, […] table 6 using the following methodology (table 7): […] solvent and successive additions (initially 0.2 mL and finally 0.5 mL) of solvent until the solid was completely dissolved or up to a maximum of 8 mL were performed. After each solvent addition the suspension was vigorously stirred for 10-15 minutes and visually inspected to determine if the solid was completely dissolved.
Value Type: solubility

Input: Sample Cc1cc(OCCN2CCOCC2)nn1-c1ccc2ccccc2c1.Cl — what was its solubility?
Output: 25 to 50 mg/mL
